test system: experimental asthma model (airway resistance); assay: Effect on experimental asthma model in guinea pigs (airway resistance); type: in vivo, guinea pigs (male hartley); settings: Cavia porcellus, po, 0.5 h, 50 mg/kg oral (TABLE 6)
reported_endpoint: inhibition in vivo at 50 mg/kg (%)
Provide the reading as a plain figure in %.

Exam item: // fetch experimental asthma model (airway resistance) inhibition in vivo at 50 mg/kg for CCCCCCCCCCOc1c(O)c(=O)oc2cc(O[C@H]3O[C@H](CO)[C@@H](O)[C@H](O)[C@@H]3O)ccc12 [compound 133]
Marked response: 43.2

Continuing:
Exam item: Param readout = inhibition in vivo at 50 mg/kg; param system = experimental asthma model (airway resistance); param query = CCCCCCOc1c(O)c(=O)oc2cc(O[C@@H]3O[C@H](CO)[C@@H](O)[C@H](O)[C@H]3O)ccc12 [compound 19] ; response: value
Marked response: 65.2

Exam item: Give the reported inhibition in vivo at 50 mg/kg for CCCCOc1c(O)c2ccc(O[C@H]3O[C@H](CO)[C@@H](O)[C@H](O)[C@@H]3O)cc2oc1=O [compound 62] (system: experimental asthma model (airway resistance)).
Marked response: 50.1

Exam item: inhibition in vivo at 50 mg/kg of CCCCCCCCOc1c(OC(C)=O)c(=O)oc2cc(O[C@@H]3O[C@H](COC(C)=O)[C@@H](OC(C)=O)[C@H](OC(C)=O)[C@H]3OC(C)=O)ccc12 [compound 16] on experimental asthma model (airway resistance)?
Marked response: 40.2

Exam item: Param readout = inhibition in vivo at 50 mg/kg; param system = experimental asthma model (airway resistance); param query = CCCCCCCCCCCCOc1c(O)c2ccc(O[C@@H]3O[C@H](CO)[C@H](O)[C@H](O)[C@H]3O)cc2oc1=O [compound 90] ; response: value
Marked response: 72.1

Exam item: Request: inhibition in vivo at 50 mg/kg, test system experimental asthma model (airway resistance), entry CCCCCCCCOc1c(O)c(=O)oc2cc(O[C@@H]3O[C@H](CO)[C@H](O)[C@H](O)[C@H]3O)ccc12 [compound 23]
Marked response: 61.5

Exam item: Provide the documented inhibition in vivo at 50 mg/kg with experimental asthma model (airway resistance) as the system for CCC=CCCOc1c(O)c2ccc(O[C@@H]3O[C@H](CO)[C@@H](O)[C@H](O)[C@H]3O)cc2oc1=O [compound 45]
Marked response: 62.3

Exam item: Item: CCC=CCCOc1c(O)c(=O)oc2cc(O[C@H]3O[C@H](CO)[C@@H](O)[C@H](O)[C@@H]3O)ccc12 [compound 138] Test system: experimental asthma model (airway resistance) Read-out: inhibition in vivo at 50 mg/kg Value: ?
Marked response: 50.8

Exam item: Lab request: please report inhibition in vivo at 50 mg/kg under test system experimental asthma model (airway resistance) for CCCCCCOc1c(OC(C)=O)c(=O)oc2cc(O[C@@H]3O[C@H](COC(C)=O)[C@H](OC(C)=O)[C@H](OC(C)=O)[C@H]3OC(C)=O)ccc12 [compound 15]
Marked response: 42.1

Exam item: Request: inhibition in vivo at 50 mg/kg, test system experimental asthma model (airway resistance), entry CCCCCCCCCCCCOc1c(O)c2ccc(O[C@@H]3O[C@H](CO)[C@@H](O)[C@H](O)[C@H]3O)cc2oc1=O [compound 41]
Marked response: 70.2

Exam item: Which measured inhibition in vivo at 50 mg/kg belongs to CCCCOc1c(O)c(=O)oc2cc(O[C@@H]3O[C@H](CO)[C@@H](O)[C@H](O)[C@H]3O)ccc12 [compound 110] , tested on experimental asthma model (airway resistance)?
Marked response: 56.5

Exam item: Under experimental asthma model (airway resistance): inhibition in vivo at 50 mg/kg value of CCCCCCOc1c(O)c2ccc(O[C@@H]3O[C@H](CO)[C@H](O)[C@H](O)[C@H]3O)cc2oc1=O [compound 87] ?
Marked response: 79.5

Exam item: Which measured inhibition in vivo at 50 mg/kg belongs to CCCCCCOc1c(OCc2ccccc2)c2ccc(O[C@@H]3O[C@H](COC(C)=O)[C@H](OC(C)=O)[C@H](OC(C)=O)[C@H]3OC(C)=O)cc2oc1=O [compound 75] , tested on experimental asthma model (airway resistance)?
Marked response: 43.5

###

test system: experimental asthma model (airway resistance); test: Effect on experimental asthma model in guinea pigs (airway resistance); format: in vivo, guinea pigs (male hartley); settings: Cavia porcellus, po, 0.5 h, 50 mg/kg oral (TABLE 6)
reported_endpoint: inhibition in vivo at 50 mg/kg (%)
Return type: number; implicit unit %.

Some compounds with recorded inhibition in vivo at 50 mg/kg:
Exam item: Param item = "CC(C)=CCC/C(C)=C/COc1c(O)c2ccc(O[C@@H]3O[C@H](CO)[C@@H](O)[C@H](O)[C@H]3O)cc2oc1=O" ; retrieve measured inhibition in vivo at 50 mg/kg.
Marked response: 63.4

Exam item: Requested read-out: inhibition in vivo at 50 mg/kg. Entry: "CCCCCCCCCCCCOc1c(O)c(=O)oc2cc(O[C@@H]3O[C@H](CO)[C@@H](O)[C@H](O)[C@H]3O)ccc12"
Marked response: 57.2

Exam item: So what does the record say about inhibition in vivo at 50 mg/kg for "CCC=CCCOc1c(O)c2ccc(O[C@H]3O[C@H](CO)[C@@H](O)[C@H](O)[C@@H]3O)cc2oc1=O" ?
Marked response: 65.6

Exam item: Fill in: inhibition in vivo at 50 mg/kg of "CCCCOc1c(O)c2ccc(O[C@@H]3O[C@H](CO)[C@H](O)[C@H](O)[C@H]3O)cc2oc1=O" is ___
Marked response: 73.2

New cases:
Exam item: Which inhibition in vivo at 50 mg/kg is listed for "CC(C)=CCC/C(C)=C/COc1c(O)c(=O)oc2cc(O[C@H]3O[C@H](CO)[C@@H](O)[C@H](O)[C@@H]3O)ccc12" ?
Marked response: 47.2

Exam item: Consider the compound shown here: "C=COc1c(O)c2ccc(O[C@@H]3O[C@H](CO)[C@H](O)[C@H](O)[C@H]3O)cc2oc1=O" What is its recorded inhibition in vivo at 50 mg/kg?
Marked response: 69.7

Exam item: // query inhibition in vivo at 50 mg/kg value for entry "CCCCOc1c(O)c(=O)oc2cc(O[C@@H]3O[C@H](CO)[C@H](O)[C@H](O)[C@H]3O)ccc12"
Marked response: 52.3

###

system: experimental asthma model (airway resistance); assay: Effect on experimental asthma model in guinea pigs (airway resistance); type: in vivo, guinea pigs (male hartley); settings: Cavia porcellus, po, 0.5 h, 50 mg/kg oral (TABLE 6)
reported_endpoint: inhibition in vivo at 50 mg/kg (%)
Write the number in % without appending the unit.

Here is how some compounds turned out for inhibition in vivo at 50 mg/kg.
Exam item: Suppose we examine the compound "COc1c(O)c2ccc(O[C@@H]3O[C@H](CO)[C@H](O)[C@H](O)[C@H]3O)cc2oc1=O" ; what inhibition in vivo at 50 mg/kg value has been reported?
Marked response: 60.3

Exam item: Which inhibition in vivo at 50 mg/kg is reported for this compound? "CC(C)Oc1c(O)c2ccc(O[C@H]3O[C@H](CO)[C@@H](O)[C@H](O)[C@@H]3O)cc2oc1=O"
Marked response: 60.2

Next up:
Exam item: Param item = "CC(=O)Oc1c(OC(C)C)c2ccc(O[C@@H]3O[C@H](COCc4ccccc4)[C@@H](OCc4ccccc4)[C@H](OCc4ccccc4)[C@H]3OCc3ccccc3)cc2oc1=O" ; retrieve measured inhibition in vivo at 50 mg/kg.
Marked response: 41.9

###

Reported inhibition in vivo at 50 mg/kg values follow for various compounds
test system: experimental asthma model (airway resistance); assay: Effect on experimental asthma model in guinea pigs (airway resistance); format: in vivo, guinea pigs (male hartley); details: Cavia porcellus, po, 0.5 h, 50 mg/kg oral (TABLE 6)
Give the value, in units of %, as a plain number.

Here are 6 compounds together with their reported answers.
Exam item: Hi! What's the reported inhibition in vivo at 50 mg/kg for "CCCCCCOc1c(O)c2ccc(O[C@@H]3O[C@H](CO)[C@@H](O)[C@H](O)[C@H]3O)cc2oc1=O" on experimental asthma model (airway resistance)?
Marked response: 75.5

Exam item: Request - read-out inhibition in vivo at 50 mg/kg | tested on experimental asthma model (airway resistance) | compound "CC(=O)Oc1c(O)c2ccc(O[C@@H]3O[C@H](CO)[C@@H](O)[C@H](O)[C@H]3O)cc2oc1=O"
Marked response: 45.7

Exam item: Lookup: inhibition in vivo at 50 mg/kg / experimental asthma model (airway resistance) / "COc1c(O)c2ccc(O[C@H]3O[C@H](CO)[C@@H](O)[C@H](O)[C@@H]3O)cc2oc1=O"
Marked response: 59.2

Exam item: Give the reported inhibition in vivo at 50 mg/kg for CC1CCC(Oc2c(O)c3ccc(O[C@H]4O[C@H](CO)[C@@H](O)[C@H](O)[C@@H]4O)cc3oc2=O)CC1 (stereo partly shown) (system: experimental asthma model (airway resistance)).
Marked response: 63.5

Exam item: State its inhibition in vivo at 50 mg/kg on experimental asthma model (airway resistance): "CCCCCCCCCCOc1c(O)c2ccc(O[C@H]3O[C@H](CO)[C@@H](O)[C@H](O)[C@@H]3O)cc2oc1=O"
Marked response: 49.3

Exam item: Query for experimental asthma model (airway resistance): what inhibition in vivo at 50 mg/kg does the record show for "CCCCCCCCOc1c(O)c2ccc(O[C@@H]3O[C@H](CO)[C@H](O)[C@H](O)[C@H]3O)cc2oc1=O" ?
Marked response: 80.2

Continuing:
Exam item: Request - read-out inhibition in vivo at 50 mg/kg | tested on experimental asthma model (airway resistance) | compound "CC(C)Oc1c(O)c2ccc(O[C@@H]3O[C@H](CO)[C@H](O)[C@H](O)[C@H]3O)cc2oc1=O"
Marked response: 69.5
